# System: Plasmodium berghei
# assay-text: Antimalarial activity against Plasmodium berghei NK65 infected in mouse assessed as reduction in parasitemia at 5 mg/kg, po administered daily for 3 consecutive days starting 24 hrs post inoculum challenge containing parasitized red blood cells measured on day 7 by giemsa staining based microscopic method
# Type: functional
experimental-endpoint: inhibition in vivo at 5 mg/kg (%)
Numbers only here, please. The scale is %.

Data request: Name the recorded inhibition in vivo at 5 mg/kg of Cc1cc(Nc2ccc3ccccc3c2)n2nc(C)cc2n1 , assay system Plasmodium berghei.
Data returned: 40

Data request: System Plasmodium berghei. Read-out inhibition in vivo at 5 mg/kg. Item Cc1cc2nc(C(F)(F)F)cc(Nc3ccc4ccccc4c3)n2n1 . Report value.
Data returned: 1

Data request: Consider the molecule CCN(CC)Cc1cc(Nc2ccnc3cc(Cl)ccc23)ccc1O [AMODIAQUINE] tested on Plasmodium berghei; state its inhibition in vivo at 5 mg/kg.
Data returned: 100

Data request: Specify the recorded inhibition in vivo at 5 mg/kg for Cc1cc(Nc2ccc3ccccc3c2)n2nc(C(F)(F)F)cc2n1 , system: Plasmodium berghei.
Data returned: 61
